system: HCoV-OC43; set-up: species or system RD; HTS, protection from HCoV-OC43 induced cell death, luminescent cell viability (CellCounting-Lite 2.0), inhibition rate; details: 24 h post infection, 1 h compound pre-incubation; 10 µM; inhibitor
The whole screen tested about 3,300 compounds, of which about 60 (2%) showed an effect of 50% or more. For the sample, strong results were picked, then their nearest neighbours and some compounds at random. Bridge positions count the residues as written; N and C are the ends. Square brackets hold non-standard residues; d marks the D form. Peptide text beside a SMILES is read from it. * marks the point of attachment. NMePhe(4-NMe2) = CN[C@@H](Cc1ccc(N(C)C)cc1)C(=O)O; Pip(4-oxo) = O=C1CCN[C@H](C(=O)O)C1; Picolinoyl(3-OH) = O=C(c1ncccc1O)*; Phg = N[C@H](C(=O)O)c1ccccc1; dAbu = CC[C@@H](N)C(=O)O
Value kind: OC43 Inhibition rate (%)

C=C(C(=O)O)[C@@H]1CC[C@@H](C)[C@@H]2CCC(C)=C[C@@H]21 :: 4.6
O=C(/C=C/c1ccc(O)c(O)c1)O[C@@H]1[C@H](O)C[C@@](O)(C(=O)O)C[C@H]1OC(=O)/C=C/c1ccc(O)c(O)c1 :: -0.7
CC[C@H]1NC(=O)[C@@H](NC(=O)c2ncccc2O)[C@@H](C)OC(=O)[C@H](c2ccccc2)NC(=O)[C@@H]2CC(=O)CCN2C(=O)[C@H](Cc2ccc(N(C)C)cc2)N(C)C(=O)[C@@H]2CCCN2C1=O [Pristinamycin IA] ({Picolinoyl(3-OH)}-T[dAbu]P[NMePhe(4-NMe2)][Pip(4-oxo)][Phg]; ester 1-C) :: 1.7
Cc1cc(=O)c2c(O)c3c(cc2o1)OC(C)(C)[C@@H](O[C@@H]1O[C@H](CO)[C@@H](O)[C@H](O)[C@H]1O)C3 :: -0.4
O=C(O)[C@H](O)[C@H](O)[C@@H](O)[C@H](O)[C@H](O)CO :: 3.4

Values from paper PMC12431657
